Taken from patent US10344077.

- TARGET OR SYSTEM: Histones
- TEST SUMMARY: AtheNA, Ab 6.25 ug/ml
OUTCOME MEASURE: Athena reading (relative luminescence units)

>>> number("CH236_4A/293i (antibody, from a related filing, V domains shown) VH: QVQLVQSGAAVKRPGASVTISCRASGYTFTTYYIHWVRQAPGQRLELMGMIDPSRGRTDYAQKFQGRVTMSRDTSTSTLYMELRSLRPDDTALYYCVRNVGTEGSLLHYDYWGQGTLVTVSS VL: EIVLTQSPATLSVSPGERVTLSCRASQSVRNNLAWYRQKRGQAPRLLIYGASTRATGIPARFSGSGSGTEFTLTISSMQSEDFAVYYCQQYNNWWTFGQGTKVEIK")
154
>>> number("CH239_4A/293i (antibody, from a related filing, V domains shown) VH: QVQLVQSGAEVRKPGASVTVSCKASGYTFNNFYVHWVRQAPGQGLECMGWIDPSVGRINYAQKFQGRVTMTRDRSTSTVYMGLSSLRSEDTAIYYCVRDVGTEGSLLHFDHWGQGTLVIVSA VL: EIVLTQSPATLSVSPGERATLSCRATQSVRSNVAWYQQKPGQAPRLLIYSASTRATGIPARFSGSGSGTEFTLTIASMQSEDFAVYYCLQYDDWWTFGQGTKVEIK")
266
>>> number("CH235_4A (antibody, from a related filing, V domains shown) VH: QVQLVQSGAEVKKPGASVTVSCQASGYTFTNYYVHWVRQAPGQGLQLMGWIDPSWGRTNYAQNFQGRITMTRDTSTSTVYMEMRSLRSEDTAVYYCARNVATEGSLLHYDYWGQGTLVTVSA VL: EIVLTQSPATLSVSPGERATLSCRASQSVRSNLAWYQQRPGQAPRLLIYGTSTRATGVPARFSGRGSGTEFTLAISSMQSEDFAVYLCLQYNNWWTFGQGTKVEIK")
5
>>> number("CH241 (antibody, from a related filing, V domains shown) VH: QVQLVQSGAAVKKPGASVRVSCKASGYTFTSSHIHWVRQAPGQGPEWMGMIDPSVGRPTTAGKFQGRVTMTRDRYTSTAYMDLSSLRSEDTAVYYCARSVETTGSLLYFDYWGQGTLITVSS VL: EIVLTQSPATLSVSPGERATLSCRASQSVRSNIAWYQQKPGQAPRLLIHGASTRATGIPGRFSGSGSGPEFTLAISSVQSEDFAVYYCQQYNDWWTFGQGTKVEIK")
9
